- Target: PIK3Cb_h (Homo sapiens, UniProt P42338)
- Construct: purchased Eurofins DiscoveRx Corporation
- Sequence (P42338 whole entry): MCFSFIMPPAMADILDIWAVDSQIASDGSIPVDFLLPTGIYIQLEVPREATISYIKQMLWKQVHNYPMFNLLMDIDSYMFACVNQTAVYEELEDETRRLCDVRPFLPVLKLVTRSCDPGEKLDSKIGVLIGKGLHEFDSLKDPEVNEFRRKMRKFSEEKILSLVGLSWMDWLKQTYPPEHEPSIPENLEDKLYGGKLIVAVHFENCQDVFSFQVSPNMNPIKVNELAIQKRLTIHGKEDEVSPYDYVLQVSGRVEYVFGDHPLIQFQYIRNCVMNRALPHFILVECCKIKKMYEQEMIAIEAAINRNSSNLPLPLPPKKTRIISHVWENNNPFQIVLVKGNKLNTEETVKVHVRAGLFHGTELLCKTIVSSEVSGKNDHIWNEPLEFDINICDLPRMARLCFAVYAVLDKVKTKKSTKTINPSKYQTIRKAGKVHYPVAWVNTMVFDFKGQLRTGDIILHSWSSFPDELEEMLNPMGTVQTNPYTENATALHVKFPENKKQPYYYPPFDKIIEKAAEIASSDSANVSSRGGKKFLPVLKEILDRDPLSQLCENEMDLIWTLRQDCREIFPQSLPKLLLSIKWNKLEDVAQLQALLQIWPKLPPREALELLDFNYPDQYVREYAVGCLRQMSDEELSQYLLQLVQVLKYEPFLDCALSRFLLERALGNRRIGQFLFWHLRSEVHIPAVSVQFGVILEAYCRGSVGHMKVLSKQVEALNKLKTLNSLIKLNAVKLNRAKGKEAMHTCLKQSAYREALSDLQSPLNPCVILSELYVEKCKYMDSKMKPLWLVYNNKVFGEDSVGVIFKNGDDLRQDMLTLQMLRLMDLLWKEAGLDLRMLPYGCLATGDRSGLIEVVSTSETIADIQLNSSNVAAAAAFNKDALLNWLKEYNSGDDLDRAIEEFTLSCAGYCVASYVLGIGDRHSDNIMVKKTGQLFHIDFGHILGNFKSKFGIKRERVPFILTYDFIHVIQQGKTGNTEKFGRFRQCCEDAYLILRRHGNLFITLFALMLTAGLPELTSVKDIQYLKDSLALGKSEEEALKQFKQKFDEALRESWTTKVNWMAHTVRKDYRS
- Test Description: Enzyme binding assay (KINOMEscan)
- Experimental Conditions: Eurofins DiscoveRx
Property Measured: Kd

{"Compound": "COC(=O)Cc1cc(C(C)Nc2cc(F)cc(F)c2)c2oc(N3CCOCC3)cc(=O)c2c1 (centres unmarked)", "Target": "PIK3Cb_h (Homo sapiens, UniProt P42338)", "Property Measured": "Kd", "Result": "0.21 nM"}
{"Compound": "CN(C)C(=O)c1cc(CN2CCc3c(F)cc(F)cc32)c2oc(N3CCOCC3)cc(=O)c2c1", "Target": "PIK3Cb_h (Homo sapiens, UniProt P42338)", "Property Measured": "Kd", "Result": "0.18 nM"}
{"Compound": "CN(C)C(=O)c1cc(CN2CC(C)(C)c3c(F)cc(F)cc32)c2oc(N3CCOCC3)cc(=O)c2c1", "Target": "PIK3Cb_h (Homo sapiens, UniProt P42338)", "Property Measured": "Kd", "Result": "0.37 nM"}
{"Compound": "CC(Nc1cc(F)cc(F)c1)c1cc(O)cc2c(=O)cc(N3CCOCC3)oc12 (centres unmarked)", "Target": "PIK3Cb_h (Homo sapiens, UniProt P42338)", "Property Measured": "Kd", "Result": "0.059 nM"}
{"Compound": "C[C@@H](Nc1cc(F)cc(F)c1)c1cc(C(=O)N2CC[C@H](N(C)C)C2)cn2c(=O)cc(N3CCOCC3)nc12", "Target": "PIK3Cb_h (Homo sapiens, UniProt P42338)", "Property Measured": "Kd", "Result": "0.12 nM"}

====

- Target: PIK3Cd_h (Homo sapiens)
- Construct: purchased Eurofins DiscoveRx Corporation
- Sequence (O00329 1-1044): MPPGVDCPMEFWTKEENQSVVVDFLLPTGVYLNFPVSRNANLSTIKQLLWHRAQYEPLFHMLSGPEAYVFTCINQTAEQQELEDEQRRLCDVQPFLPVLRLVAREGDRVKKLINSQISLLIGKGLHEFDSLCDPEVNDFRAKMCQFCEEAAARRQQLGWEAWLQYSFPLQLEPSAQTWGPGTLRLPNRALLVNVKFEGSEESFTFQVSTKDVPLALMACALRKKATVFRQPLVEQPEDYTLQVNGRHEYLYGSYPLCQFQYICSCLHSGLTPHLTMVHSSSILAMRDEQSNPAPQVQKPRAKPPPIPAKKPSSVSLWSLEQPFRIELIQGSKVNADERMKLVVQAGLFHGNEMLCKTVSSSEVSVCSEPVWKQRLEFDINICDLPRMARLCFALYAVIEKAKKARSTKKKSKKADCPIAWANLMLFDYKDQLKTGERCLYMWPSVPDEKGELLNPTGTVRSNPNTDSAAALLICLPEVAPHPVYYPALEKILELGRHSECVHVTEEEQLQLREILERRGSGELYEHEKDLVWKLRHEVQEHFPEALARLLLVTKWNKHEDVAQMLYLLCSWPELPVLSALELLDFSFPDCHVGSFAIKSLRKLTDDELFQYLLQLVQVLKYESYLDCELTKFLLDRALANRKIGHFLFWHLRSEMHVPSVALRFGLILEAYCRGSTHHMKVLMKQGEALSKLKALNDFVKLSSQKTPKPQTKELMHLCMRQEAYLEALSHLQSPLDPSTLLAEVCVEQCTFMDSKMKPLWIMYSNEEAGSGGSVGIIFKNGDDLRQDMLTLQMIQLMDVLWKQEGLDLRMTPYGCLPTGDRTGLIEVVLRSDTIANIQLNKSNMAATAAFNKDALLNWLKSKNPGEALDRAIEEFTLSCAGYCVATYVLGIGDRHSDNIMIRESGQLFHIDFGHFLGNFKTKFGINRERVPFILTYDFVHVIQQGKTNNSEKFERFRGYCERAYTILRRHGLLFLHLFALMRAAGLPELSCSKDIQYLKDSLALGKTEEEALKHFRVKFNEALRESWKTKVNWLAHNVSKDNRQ
- Test Description: Enzyme binding assay (KINOMEscan)
- Experimental Conditions: Eurofins DiscoveRx
Measured Kd, listed per entry for reference.

{"Compound": "CC(Nc1cc(F)cc(F)c1)c1cc(C(=O)N2CCC(N(C)C)C2)cn2c(=O)cc(N3CCOCC3)nc12 (single isomer, unassigned) [Compound 48-P1]", "Kd": "> 10000 nM"}
{"Compound": "C[C@@H]1CN(c2cc(=O)c3cc(C(=O)N(C)C)cc(CN4CCc5c(F)cc(F)cc54)c3o2)CCO1", "Kd": "1.5 nM"}
{"Compound": "CC(Nc1cc(F)cc(F)c1)c1cc(N2CCOCC2=O)cc2c(=O)cc(N3CCOCC3)oc12 (centres unmarked)", "Kd": "8 nM"}
{"Compound": "C[C@@H](Nc1cc(F)cc(F)c1)c1cc(C(=O)N2CC[C@@H](N(C)C)C2)cn2c(=O)cc(N3CCOCC3)nc12", "Kd": "8.9 nM"}
{"Compound": "C[C@@H]1CN(c2cc(=O)c3cc(C(=O)N(C)C)cc(CN4CCc5c(F)cccc54)c3o2)CCO1", "Kd": "7.4 nM"}
{"Compound": "CC1Cc2c(F)cccc2N1Cc1cc(C(=O)N(C)C)cc2c(=O)cc(N3CCOCC3)oc12 (centres unmarked)", "Kd": "12 nM"}
{"Compound": "CN(C)C(=O)c1cc(CN2CCc3c(F)cc(F)cc32)c2oc(N3CCOCC3)cc(=O)c2c1", "Kd": "19 nM"}
{"Compound": "C[C@@H](Nc1cc(F)cc(F)c1)c1cc(C(=O)N2CC[C@H](N(C)C)C2)cn2c(=O)cc(N3CCOCC3)nc12", "Kd": "18 nM"}
{"Compound": "CNS(=O)(=O)c1cc(C(C)Nc2cc(F)cc(F)c2)c2oc(N3CCOCC3)cc(=O)c2c1 (centres unmarked)", "Kd": "8.1 nM"}
{"Compound": "CC(Nc1cc(F)cc(F)c1)c1cc(NC2=NC(C)(C)CO2)cc2c(=O)cc(N3CCOCC3)oc12 (centres unmarked)", "Kd": "58 nM"}
{"Compound": "CC(Nc1cc(F)cc(F)c1)c1cc(C(=O)N2CCC(N(C)C)C2)cn2c(=O)cc(N3CCOCC3)nc12 (centres unmarked) [Compound 48]", "Kd": "40 nM"}

====

- Target: PIK3Cg_h (Homo sapiens)
- Construct: purchased Eurofins DiscoveRx Corporation
- Sequence (P48736 whole entry): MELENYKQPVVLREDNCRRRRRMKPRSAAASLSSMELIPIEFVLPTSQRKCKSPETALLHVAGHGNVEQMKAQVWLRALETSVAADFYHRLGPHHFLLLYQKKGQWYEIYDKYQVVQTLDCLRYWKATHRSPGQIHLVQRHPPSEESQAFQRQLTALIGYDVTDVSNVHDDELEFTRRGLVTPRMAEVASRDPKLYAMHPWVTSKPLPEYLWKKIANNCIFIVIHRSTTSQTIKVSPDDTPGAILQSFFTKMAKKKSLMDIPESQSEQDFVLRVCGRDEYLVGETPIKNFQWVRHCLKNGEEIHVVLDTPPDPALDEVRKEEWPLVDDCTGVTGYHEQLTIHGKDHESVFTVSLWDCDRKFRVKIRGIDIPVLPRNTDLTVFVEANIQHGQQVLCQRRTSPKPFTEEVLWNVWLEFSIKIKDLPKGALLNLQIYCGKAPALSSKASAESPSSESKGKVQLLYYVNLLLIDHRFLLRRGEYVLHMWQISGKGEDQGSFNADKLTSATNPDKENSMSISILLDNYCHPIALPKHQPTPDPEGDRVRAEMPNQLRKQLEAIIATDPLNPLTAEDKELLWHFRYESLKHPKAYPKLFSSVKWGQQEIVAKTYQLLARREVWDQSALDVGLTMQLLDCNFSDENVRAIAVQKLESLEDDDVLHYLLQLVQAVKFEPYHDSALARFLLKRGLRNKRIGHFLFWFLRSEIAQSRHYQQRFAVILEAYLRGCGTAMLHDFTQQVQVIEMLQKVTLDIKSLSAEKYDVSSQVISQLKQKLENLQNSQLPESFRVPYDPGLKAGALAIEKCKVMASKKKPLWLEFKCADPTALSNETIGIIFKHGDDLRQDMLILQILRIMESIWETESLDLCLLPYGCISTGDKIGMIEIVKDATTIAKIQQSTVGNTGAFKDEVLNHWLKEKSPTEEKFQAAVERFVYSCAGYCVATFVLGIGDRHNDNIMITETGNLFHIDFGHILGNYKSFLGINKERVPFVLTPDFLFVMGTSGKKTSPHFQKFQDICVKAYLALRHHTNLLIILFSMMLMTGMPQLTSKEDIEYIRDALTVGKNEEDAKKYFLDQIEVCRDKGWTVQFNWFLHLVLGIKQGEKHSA
- Test Description: Enzyme binding assay (KINOMEscan)
- Experimental Conditions: Eurofins DiscoveRx
Property Measured: Kd (nM)

{"Compound": "CC(Nc1cc(F)cc(F)c1)c1cc(C(=O)N2CCC(N(C)C)C2)cn2c(=O)cc(N3CCOCC3)nc12 (single isomer, unassigned) [Compound 48-P1]", "Target": "PIK3Cg_h (Homo sapiens)", "Comparison Sign": ">", "Readout Number": 10000}
{"Compound": "C[C@@H]1CN(c2cc(=O)c3cc(C(=O)N(C)C)cc(CN4CCc5c(F)cccc54)c3o2)CCO1", "Target": "PIK3Cg_h (Homo sapiens)", "Comparison Sign": "=", "Readout Number": 230}
{"Compound": "CC(Nc1cc(F)cc(F)c1)c1cc(NC2=NC(C)(C)CO2)cc2c(=O)cc(N3CCOCC3)oc12 (centres unmarked)", "Target": "PIK3Cg_h (Homo sapiens)", "Comparison Sign": "=", "Readout Number": 2200}
{"Compound": "CC(Nc1cc(F)cc(F)c1)c1cc(C(=O)N2CCC(N(C)C)C2)cn2c(=O)cc(N3CCOCC3)nc12 (centres unmarked) [Compound 48]", "Target": "PIK3Cg_h (Homo sapiens)", "Comparison Sign": "=", "Readout Number": 730}
{"Compound": "CC(Nc1cc(F)cc(F)c1)c1cc(N2CCOCC2=O)cc2c(=O)cc(N3CCOCC3)oc12 (centres unmarked)", "Target": "PIK3Cg_h (Homo sapiens)", "Comparison Sign": "=", "Readout Number": 730}
{"Compound": "C[C@@H](Nc1cc(F)cc(F)c1)c1cc(C(=O)N2CC[C@@H](N(C)C)C2)cn2c(=O)cc(N3CCOCC3)nc12", "Target": "PIK3Cg_h (Homo sapiens)", "Comparison Sign": "=", "Readout Number": 1100}
{"Compound": "CN(C)C(=O)c1cc(CN2CCc3c(F)cc(F)cc32)c2oc(N3CCOCC3)cc(=O)c2c1", "Target": "PIK3Cg_h (Homo sapiens)", "Comparison Sign": "=", "Readout Number": 500}
{"Compound": "C[C@@H]1CN(c2cc(=O)c3cc(C(=O)N(C)C)cc(CN4CCc5c(F)cc(F)cc54)c3o2)CCO1", "Target": "PIK3Cg_h (Homo sapiens)", "Comparison Sign": "=", "Readout Number": 87}
{"Compound": "C[C@@H](Nc1cc(F)cc(F)c1)c1cc(C(=O)N2CC[C@H](N(C)C)C2)cn2c(=O)cc(N3CCOCC3)nc12", "Target": "PIK3Cg_h (Homo sapiens)", "Comparison Sign": "=", "Readout Number": 1600}
{"Compound": "CNS(=O)(=O)c1cc(C(C)Nc2cc(F)cc(F)c2)c2oc(N3CCOCC3)cc(=O)c2c1 (centres unmarked)", "Target": "PIK3Cg_h (Homo sapiens)", "Comparison Sign": "=", "Readout Number": 110}
{"Compound": "CC1Cc2c(F)cccc2N1Cc1cc(C(=O)N(C)C)cc2c(=O)cc(N3CCOCC3)oc12 (centres unmarked)", "Target": "PIK3Cg_h (Homo sapiens)", "Comparison Sign": "=", "Readout Number": 320}
